Just for reference, PubChem BioAssay (NCI) is where these values come from.

# System: SF-295 CNS
# Assay Info: NCI tumour cell line growth inhibition, 48 h
Experimental Endpoint: TGI

[in] May I ask what TGI has been recorded for COC(=O)c1ccc2c(c1)C(=O)c1c-2n(C)c(=O)c2cc(OC)c(OC)cc12 ?
[out] > 50 µM

[in] Field entry: O=C(Nc1c(C(=O)NC2CCCCC2)[nH]c(=O)[nH]c1=O)c1ccc(Cl)cc1
[out] > 100 µM

[in] Field entry: COC(=O)C1(C(=O)OC)N=C(C)OC1c1ccccn1 (stereo unspecified)
[out] > 100 µM

[in] Field entry: CCOC(=O)CSc1nnc(CSc2nc(-c3ccccc3)c(-c3ccccc3)[nH]2)n1-c1ccccc1
[out] > 100 µM

[in] Field entry: N#CCCN(CCC#N)c1ccc(C(N=Nc2ccccc2)=Nc2ccc(Cl)cc2)cc1
[out] > 100 µM

[in] Field entry: Cc1cc(C)n2c(-c3ccccc3)c(C)cc2n1
[out] > 100 µM
